assay: Half life in Sprague-Dawley rat at 20 to 25 mg/kg, po and […], iv administered as single dose; type: ADME, organism-based; design: dose 20-25 mg/kg, route oral; settings: in vivo
Observable: half-life (h)

- Chemical string: "N#Cc1ccccc1Cn1c(N2CCC[C@@H](N)C2)nc2c(Br)c[nH]c2c1=O"
  Measured value: 2

###

assay: Efflux ratio of apparent permeability from apical to basolateral side to basolateral to apical side in human Caco2 cells at 10 uM after 60 mins by LC-MS/MS analysis; conditions: Caco-2

- Chemical string: "N#Cc1ccccc1Cn1c(N2CCC[C@@H](N)C2)nc2[nH]c(-c3ccc(F)cc3)cc2c1=O"
  efflux ratio at 1 h, 10 µM: 45.3
- Chemical string: "N#Cc1ccccc1Cn1c(N2CCC[C@@H](N)C2)nc2c(-c3ccsc3)c[nH]c2c1=O"
  efflux ratio at 1 h, 10 µM: 11.4
- Chemical string: "N#Cc1ccccc1Cn1c(N2CCC[C@@H](N)C2)nc2c(-c3cccnc3)c[nH]c2c1=O"
  efflux ratio at 1 h, 10 µM: 37.8
- Chemical string: "Cn1ccc2c(=O)n(Cc3ccccc3C#N)c(N3CCC[C@@H](N)C3)nc21"
  efflux ratio at 1 h, 10 µM: 13.3
- Chemical string: "N#Cc1ccccc1Cn1c(N2CCC[C@@H](N)C2)nc2cc[nH]c2c1=O"
  efflux ratio at 1 h, 10 µM: 4.2
